# Protocol Details: Inhibition of 20s constitutive proteasome beta1 caspase-like activity in human erythrocytes using […] as substrate preincubated for 10 mins followed by substrate addition and measured after 6 hrs by fluorescence assay
Property: IC50 (µM)

[[record]]
structure_as_smiles = "C1=C2CN3CCCC/C=C\\CC[C@@H]4CN(CCCC/C=C\\CC[C@H]1C3)CC[C@@H]24"
property = "IC50"
obs_value = 0.48

[[record]]
structure_as_smiles = "C1=C\\CCc2cc3c[n+](c2)CCCC/C=C\\CC[C@@H]2CN(CCCC/1)CC[C@@H]32"
property = "IC50"
obs_value = 4.7

